# assay_target: P-glycoprotein (P-gp) (Homo sapiens, UniProt P08183)
# Sequence (P08183 whole entry): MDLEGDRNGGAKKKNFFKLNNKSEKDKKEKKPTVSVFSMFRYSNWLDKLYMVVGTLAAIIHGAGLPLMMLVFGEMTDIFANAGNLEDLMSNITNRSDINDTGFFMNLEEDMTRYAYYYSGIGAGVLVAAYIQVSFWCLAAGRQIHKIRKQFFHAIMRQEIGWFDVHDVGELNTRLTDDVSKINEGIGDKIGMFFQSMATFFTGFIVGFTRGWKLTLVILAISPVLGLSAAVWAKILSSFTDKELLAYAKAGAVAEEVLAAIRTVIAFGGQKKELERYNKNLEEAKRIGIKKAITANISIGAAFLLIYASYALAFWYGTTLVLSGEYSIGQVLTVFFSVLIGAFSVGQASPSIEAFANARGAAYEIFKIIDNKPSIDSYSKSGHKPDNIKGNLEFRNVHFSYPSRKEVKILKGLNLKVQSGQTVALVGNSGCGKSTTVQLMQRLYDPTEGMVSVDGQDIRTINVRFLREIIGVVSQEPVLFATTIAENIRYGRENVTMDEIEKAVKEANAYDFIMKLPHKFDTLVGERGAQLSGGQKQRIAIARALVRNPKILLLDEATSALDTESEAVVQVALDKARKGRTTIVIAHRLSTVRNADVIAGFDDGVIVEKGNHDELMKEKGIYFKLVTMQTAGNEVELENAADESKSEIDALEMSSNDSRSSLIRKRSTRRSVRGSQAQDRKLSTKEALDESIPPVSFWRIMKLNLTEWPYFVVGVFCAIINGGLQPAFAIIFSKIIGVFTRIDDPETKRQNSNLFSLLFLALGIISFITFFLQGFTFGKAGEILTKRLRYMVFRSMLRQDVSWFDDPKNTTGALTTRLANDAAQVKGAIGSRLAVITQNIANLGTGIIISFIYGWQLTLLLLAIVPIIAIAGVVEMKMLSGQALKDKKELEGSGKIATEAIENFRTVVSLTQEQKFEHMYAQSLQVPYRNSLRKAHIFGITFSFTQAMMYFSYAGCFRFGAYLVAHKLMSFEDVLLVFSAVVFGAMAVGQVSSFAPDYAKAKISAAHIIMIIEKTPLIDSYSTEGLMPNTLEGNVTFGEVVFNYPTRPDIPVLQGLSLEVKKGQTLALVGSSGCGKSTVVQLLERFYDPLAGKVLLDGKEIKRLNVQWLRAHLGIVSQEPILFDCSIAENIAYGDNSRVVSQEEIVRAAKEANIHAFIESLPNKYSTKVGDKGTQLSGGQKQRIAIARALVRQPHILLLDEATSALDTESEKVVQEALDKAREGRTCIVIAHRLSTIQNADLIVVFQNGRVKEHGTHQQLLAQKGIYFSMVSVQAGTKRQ
# procedure_summary: Pgp-Glo P-gp ATPase assay: stimulation of basal activity; also inhibition of verapamil-stimulated activity
observed_property: pEC50
// pEC50 here means minus log10 of the molar concentration (mol/L)

(Q) Look up pEC50 for this compound: COC(=O)C1=C(C)NC(C)=C(C(=O)OCCN2CCN(C(c3ccccc3)c3ccccc3)CC2)C1c1cccc([N+](=O)[O-])c1 (stereo not shown)
(A) 5.38
